- Assay Comment: 4-week GLP toxicology study in rats
- Format: in vivo
- Protocol Conditions: rat, in vivo, po
Observable: NOAEL at 4 weeks (mg/kg/day)
// note: answer is a bare numeric in mg/kg/day

Any idea what its NOAEL at 4 weeks is? The compound is "C[C@H](NC(=O)CCc1nc2cccnc2n1Cc1ccc(OC(F)(F)F)cc1)c1ccc(Cl)cc1"
300

----------
- Target Desc: hERG tail current (Homo sapiens, UniProt Q12809)
- Sequence (Q12809 whole entry): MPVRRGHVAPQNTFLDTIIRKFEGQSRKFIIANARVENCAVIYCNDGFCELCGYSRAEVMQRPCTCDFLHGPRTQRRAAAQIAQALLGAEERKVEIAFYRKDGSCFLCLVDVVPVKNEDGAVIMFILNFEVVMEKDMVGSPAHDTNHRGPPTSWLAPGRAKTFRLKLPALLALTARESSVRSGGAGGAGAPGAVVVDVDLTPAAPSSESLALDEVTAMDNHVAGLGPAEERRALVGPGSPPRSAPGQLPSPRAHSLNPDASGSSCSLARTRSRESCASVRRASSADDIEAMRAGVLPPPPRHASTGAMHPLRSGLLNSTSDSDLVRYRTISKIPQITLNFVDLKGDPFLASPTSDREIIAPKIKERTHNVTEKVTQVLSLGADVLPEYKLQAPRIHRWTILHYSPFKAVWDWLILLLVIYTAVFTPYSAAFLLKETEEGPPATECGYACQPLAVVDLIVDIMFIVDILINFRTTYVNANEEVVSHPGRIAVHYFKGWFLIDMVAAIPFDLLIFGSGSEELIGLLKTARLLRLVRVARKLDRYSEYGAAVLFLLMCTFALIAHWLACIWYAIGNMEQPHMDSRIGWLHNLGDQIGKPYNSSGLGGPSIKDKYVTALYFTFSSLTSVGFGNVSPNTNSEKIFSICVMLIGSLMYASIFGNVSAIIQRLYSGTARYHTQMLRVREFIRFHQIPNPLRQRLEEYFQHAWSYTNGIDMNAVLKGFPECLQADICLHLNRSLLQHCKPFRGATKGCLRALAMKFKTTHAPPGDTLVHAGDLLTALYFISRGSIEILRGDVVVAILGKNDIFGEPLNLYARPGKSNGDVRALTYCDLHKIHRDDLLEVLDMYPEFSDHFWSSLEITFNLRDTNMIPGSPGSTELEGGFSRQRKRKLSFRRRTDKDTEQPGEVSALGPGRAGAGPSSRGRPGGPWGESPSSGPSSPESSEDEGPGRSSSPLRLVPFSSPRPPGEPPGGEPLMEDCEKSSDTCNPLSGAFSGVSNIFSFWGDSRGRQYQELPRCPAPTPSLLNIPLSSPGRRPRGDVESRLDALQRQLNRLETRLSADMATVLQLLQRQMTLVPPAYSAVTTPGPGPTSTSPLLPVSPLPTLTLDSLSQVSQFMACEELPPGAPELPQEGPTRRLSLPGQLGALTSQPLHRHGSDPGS
- Assay Comment: GLP hERG assay
- Type: cell-based
Observable: pIC50
The scale used: pIC50 is minus the common logarithm of the concentration in molar units.

Any idea what its pIC50 is? The compound is "C[C@H](NC(=O)CCc1nc2cccnc2n1Cc1ccc(OC(F)(F)F)cc1)c1ccc(Cl)cc1"
5.99

// provenance: paper PMC10205783
